assay: Plasma pharmacokinetics of irinotecan and SN-38 with and without pimasertib; details: human, in vivo, 180 mg m^−2, Cmax, median; irinotecan 180 mg m^−2 infusion, day 15, without pimasertib (reference)
property: Cmax (ng/mL)
Answers are plain numbers, in ng/mL.

Entry CCc1c2c(nc3ccc(OC(=O)N4CCC(N5CCCCC5)CC4)cc13)-c1cc3c(c(=O)n1C2)COC(=O)[C@]3(O)CC [Irinotecan, irinotecan, reference compound] has what Cmax?
2120
